FYI, the data here is from paper PMC5841289.

tested.target: GST-tagged SIRT6 (Homo sapiens, UniProt Q8N6T7)
Construct: made in house; host or cells: E. coli BL21(DE3)-pRARE
Sequence (Q8N6T7 whole entry): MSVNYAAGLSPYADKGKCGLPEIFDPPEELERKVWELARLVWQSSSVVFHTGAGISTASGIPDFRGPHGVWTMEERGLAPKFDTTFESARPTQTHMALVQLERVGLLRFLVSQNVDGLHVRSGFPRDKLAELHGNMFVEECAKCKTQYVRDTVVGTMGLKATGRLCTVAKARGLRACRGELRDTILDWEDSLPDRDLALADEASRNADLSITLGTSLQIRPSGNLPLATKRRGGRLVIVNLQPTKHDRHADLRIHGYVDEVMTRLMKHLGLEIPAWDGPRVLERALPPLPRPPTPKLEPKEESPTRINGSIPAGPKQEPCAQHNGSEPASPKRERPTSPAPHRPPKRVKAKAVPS
test.description: HPLC-based SIRT6 deacetylation assay with H3K9Ac peptide
Type: biochemical
measurement.setup: 100 µM compound, mean ± SD, n=3
measured.quantity: inhibition at 100 µM (%)

Worked set:
O=C1C[C@@H](c2ccc(O)cc2)Oc2cc(O)cc(O)c21 | 23
O=C(O[C@@H]1Cc2c(O)cc(O)cc2O[C@@H]1c1cc(O)c(O)c(O)c1)c1cc(O)c(O)c(O)c1 [Compound 9, (−)-Epigallocatechin gallate] | 42

a. O=C(O[C@@H]1Cc2c(O)cc(O)cc2O[C@@H]1c1ccc(O)c(O)c1)c1cc(O)c(O)c(O)c1 [Compound 8, (−)-Epicatechin gallate]
b. Oc1cc(O)c2c(c1)O[C@H](c1ccc(O)c(O)c1)[C@H](O)C2 [Compound 6, (−)-Epicatechin]
Could you point out whether the larger inhibition at 100 µM belongs to a or to b ? // respond with label for picked entry
a
(a: 60%, b: 10%)

----------
tested.target: GST-tagged SIRT6 (Homo sapiens, UniProt Q8N6T7)
Construct: made in house; host or cells: E. coli BL21(DE3)-pRARE
test.description: HPLC-based SIRT6 deacetylation assay with H3K9Ac peptide
Type: biochemical
measurement.setup: 100 µM compound, 40 µM H3K9Ac, mean ± SD, n=3; fold per Fig. 2C legend
measured.quantity: Activation 100 µM (fold)

Worked set:
O=c1cc(-c2ccc(O)cc2)oc2cc(O)cc(O)c12 | 0.9
COc1ccc(-c2coc3cc(O)cc(O)c3c2=O)cc1 | 1.3
O=C(O[C@@H]1Cc2c(O)cc(O)cc2O[C@@H]1c1cc(O)c(O)c(O)c1)c1cc(O)c(O)c(O)c1 [Compound 9, (−)-Epigallocatechin gallate] | 0.8
Oc1cc(O)c2cc(O)c(-c3ccc(O)c(O)c3)[o+]c2c1 | 2.6
Oc1cc(O)c2c(c1)O[C@@H](c1ccc(O)c(O)c1)[C@H](O)C2 [Compound 2, (−)-Catechin] | 0.4
O=C(O)c1cc(O)c(O)c(O)c1 | 1.4
O=C(O[C@@H]1Cc2c(O)cc(O)cc2O[C@H]1c1cc(O)c(O)c(O)c1)c1cc(O)c(O)c(O)c1 [Compound 5, (−)-Gallocatechin gallate] | 0.01
O=c1c(O)c(-c2ccc(O)c(O)c2)oc2cc(O)cc(O)c12 | 1.5

I. Oc1cc(O)c2cc(O)c(-c3cc(O)c(O)c(O)c3)[o+]c2c1
II. O=c1c(-c2ccc(O)cc2)coc2cc(O)cc(O)c12
Returns the identifier with the smallest measured Activation 100 µM among I and II . // respond with label for picked entry
II

----------
tested.target: GST-tagged SIRT6 (Homo sapiens, UniProt Q8N6T7)
Construct: made in house; host or cells: E. coli BL21(DE3)-pRARE
test.description: HPLC-based SIRT6 deacetylation assay with H3K9Ac peptide
Format: biochemical
measured.quantity: SIRT6 inhibition, in words

Worked set:
COc1cc(/C=C/C(=O)O)ccc1O [Compound 26, trans-Ferulic acid] | inactive
COc1cc(/C=C/C(=O)O)cc(OC)c1O [Compound 27, Sinapic Acid] | inactive
O=C(O)/C=C/c1ccc(O)c(O)c1 [Compound 25, Caffeic Acid] | inactive
O=c1c(-c2ccc(O)cc2)coc2cc(O)cc(O)c12 [Compound 19, Genistein] | weak SIRT6 inhibitors
COc1ccc(-c2coc3cc(O)cc(O)c3c2=O)cc1 [Compound 20, Biochanin A] | weak SIRT6 inhibitors
O=c1cc(-c2ccc(O)c(O)c2)oc2cc(O)cc(O)c12 [Compound 13, Luteolin] | weak inhibitor

// SIRT6 inhibition, in words lookup, key: O=C(O)C=Cc1ccc(O)cc1 [Compound 24, p-Coumaric acid]
inactive

Also check Oc1cc(O)c2c(c1)O[C@@H](c1cc(O)c(O)c(O)c1)[C@H](O)C2 [Compound 3, (−)-Gallocatechin]
weak inhibitor

----------
tested.target: GST-tagged SIRT6 (Homo sapiens, UniProt Q8N6T7)
Construct: made in house; host or cells: E. coli BL21(DE3)-pRARE
test.description: HPLC-based SIRT6 deacetylation assay with H3K9Ac peptide
Type: biochemical
measurement.setup: 100 µM compound, mean ± SD, n=3
measured.quantity: Inhibition % 100 µM (%)

Worked set:
O=C1C[C@@H](c2ccc(O)c(O)c2)Oc2cc(O)cc(O)c21 [Compound 11, Eriodictoyl] | 27
COc1ccc(-c2coc3cc(O)cc(O)c3c2=O)cc1 [Compound 20, Biochanin A] | 24

I. COc1cc(/C=C/C(=O)O)cc(OC)c1O [Compound 27, Sinapic Acid]
II. COc1cc(/C=C/C(=O)O)ccc1O [Compound 26, trans-Ferulic acid]
Could you point out whether the larger Inhibition % 100 µM belongs to I or to II ? // respond with label for picked entry
I

----------
tested.target: GST-tagged SIRT6 (Homo sapiens, UniProt Q8N6T7)
Construct: made in house; host or cells: E. coli BL21(DE3)-pRARE
test.description: HPLC-based SIRT6 deacetylation assay with H3K9Ac peptide
Type: biochemical
measurement.setup: 10 µM compound, mean ± SD, n=3
measured.quantity: inhibition at 10 µM (%)

Worked set:
O=c1c(-c2ccc(O)cc2)coc2cc(O)cc(O)c12 [Compound 19, Genistein] | 1.8
O=c1c(O)c(-c2ccc(O)cc2)oc2cc(O)cc(O)c12 [Compound 14, Kaempferol] | 40

P. Oc1cc(O)c2c(c1)O[C@H](c1ccc(O)c(O)c1)[C@@H](O)C2 [Compound 1, (+)-Catechin]
Q. O=C(O[C@@H]1Cc2c(O)cc(O)cc2O[C@H]1c1cc(O)c(O)c(O)c1)c1cc(O)c(O)c(O)c1 [Compound 5, (−)-Gallocatechin gallate]
Could you point out whether the larger inhibition at 10 µM belongs to P or to Q ? // respond with label for picked entry
Q
(Q: 79%, P: 17%)

1. O=C(O[C@@H]1Cc2c(O)cc(O)cc2O[C@@H]1c1ccc(O)c(O)c1)c1cc(O)c(O)c(O)c1 [Compound 8, (−)-Epicatechin gallate]
2. Oc1cc(O)c2c(c1)O[C@@H](c1ccc(O)c(O)c1)[C@H](O)C2 [Compound 2, (−)-Catechin]
Returns the identifier with the smallest measured inhibition at 10 µM among 1 and 2 . // respond with label for picked entry
1
(1: 15%, 2: 25%)

----------
tested.target: GST-tagged SIRT6 (Homo sapiens)
Construct: made in house; host or cells: E. coli BL21(DE3)-pRARE
test.description: HPLC-based SIRT6 deacetylation assay with H3K9Ac peptide
Assay type: biochemical
measurement.setup: 10 µM compound, mean ± SD, n=3
measured.quantity: inhibition at 10 µM (%)

Worked set:
O=c1cc(-c2ccc(O)c(O)c2)oc2cc(O)cc(O)c12 [Compound 13, Luteolin] | 24
O=C1C[C@@H](c2ccc(O)cc2)Oc2cc(O)cc(O)c21 [Compound 10, Naringenin] | 8.3
Oc1cc(O)c2c(c1)O[C@@H](c1cc(O)c(O)c(O)c1)[C@H](O)C2 [Compound 3, (−)-Gallocatechin] | 17

I. O=C(O[C@@H]1Cc2c(O)cc(O)cc2O[C@H]1c1ccc(O)c(O)c1)c1cc(O)c(O)c(O)c1 [Compound 4, (−)-Catechin gallate]
II. O=C(O[C@@H]1Cc2c(O)cc(O)cc2O[C@@H]1c1cc(O)c(O)c(O)c1)c1cc(O)c(O)c(O)c1 [Compound 9, (−)-Epigallocatechin gallate]
Returns the identifier with the smallest measured inhibition at 10 µM among I and II . // respond with label for picked entry
II
(II: 10%, I: 62%)

----------
tested.target: GST-tagged SIRT6 (Homo sapiens, UniProt Q8N6T7)
Construct: made in house; host or cells: E. coli BL21(DE3)-pRARE
test.description: HPLC-based SIRT6 deacetylation assay with H3K9Ac peptide;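 further: recombinant SIRT6 incubated 30 min at 37 °C with 500 µM NAD+ and H3K9Ac peptide, deacetylated H3K9 quantified by reversed-phase HPLC-MRM peak area versus DMSO control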
Assay type: biochemical
measurement.setup: 100 µM compound, mean ± SD, n=3
measured.quantity: inhibition at 100 µM (%)

Worked set:
O=c1c(-c2ccc(O)cc2)coc2cc(O)cc(O)c12 | 9.6
Oc1cc(O)c2cc(O)c(-c3ccc(O)c(O)c3)[o+]c2c1 | 0
Oc1cc(O)c2cc(O)c(-c3cc(O)c(O)c(O)c3)[o+]c2c1 | 0
O=c1cc(-c2ccc(O)c(O)c2)oc2cc(O)cc(O)c12 | 29
O=C(O)C=Cc1ccc(O)cc1 | 8.5

I. O=c1c(O)c(-c2cc(O)c(O)c(O)c2)oc2cc(O)cc(O)c12
II. O=c1c(O)c(-c2ccc(O)cc2)oc2cc(O)cc(O)c12
III. O=c1cc(-c2ccc(O)cc2)oc2cc(O)cc(O)c12
List by increasing inhibition at 100 µM. # answer = labels listed in requested order
I, III, II
(I: 0%, III: 1%, II: 24%)

P. O=C(O)c1cc(O)c(O)c(O)c1
Q. O=C(O)/C=C/c1ccc(O)c(O)c1
R. Oc1cc(O)c2c(c1)O[C@H](c1ccc(O)c(O)c1)[C@@H](O)C2 [Compound 1, (+)-Catechin]
Sort by inhibition at 100 µM, descending. # answer = labels listed in requested order
R, P, Q
(R: 26%, P: 14%, Q: -5.9%)

I. Oc1cc(O)c2c(c1)O[C@@H](c1ccc(O)c(O)c1)[C@H](O)C2 [Compound 2, (−)-Catechin]
II. COc1cc(CCC(=O)O)ccc1O
Could you point out whether the larger inhibition at 100 µM belongs to I or to II ? // respond with label for picked entry
I
(I: 54%, II: -12%)
